// provenance: patent US5580775A

- subject_of_test: rat brain L-proline transporter (Rattus norvegicus)
- Sequence (P28573 whole entry): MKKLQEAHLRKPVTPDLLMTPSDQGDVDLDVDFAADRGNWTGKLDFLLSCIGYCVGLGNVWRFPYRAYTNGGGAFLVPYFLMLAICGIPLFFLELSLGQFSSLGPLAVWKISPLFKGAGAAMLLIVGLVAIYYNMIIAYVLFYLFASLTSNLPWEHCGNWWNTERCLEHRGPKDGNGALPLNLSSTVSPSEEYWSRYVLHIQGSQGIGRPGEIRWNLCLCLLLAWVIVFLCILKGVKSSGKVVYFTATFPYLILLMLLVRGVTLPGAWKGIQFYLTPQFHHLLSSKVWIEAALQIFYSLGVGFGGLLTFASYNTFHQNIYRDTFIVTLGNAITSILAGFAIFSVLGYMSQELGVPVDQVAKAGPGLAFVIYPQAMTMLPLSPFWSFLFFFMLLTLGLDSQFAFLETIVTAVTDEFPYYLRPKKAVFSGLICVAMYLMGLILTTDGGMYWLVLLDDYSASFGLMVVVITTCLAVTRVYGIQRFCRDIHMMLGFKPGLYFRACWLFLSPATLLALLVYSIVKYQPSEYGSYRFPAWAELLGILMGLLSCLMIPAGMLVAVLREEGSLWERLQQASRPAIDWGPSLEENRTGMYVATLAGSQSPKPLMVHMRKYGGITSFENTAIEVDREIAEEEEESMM
- protocol_details: cell-based
- condition_details: Ki (inhibition of L-[3H]proline transport)
pKi: −log10 of the molar value.
assay_metric: pKi

test_smiles: O=C(O)[C@H]1CCCN1
assay_metric: pKi
recorded_result: < 4.00
